// cross-source set; read-out = IC50; system = UniProt:O00763
Measured quantity: IC50 (nM)

Some compounds with recorded IC50:
COCC(C)Nc1ncc(C#Cc2ccc(CC(C)NC(C)=O)cc2)cn1 (stereo not shown) ... 1900
CC(=O)NC(C)Cc1ccc(C#Cc2ccnc(Nc3ccccc3)n2)cc1 (stereo not shown) ... 2700
CC(=O)Nc1nc(C)c(C(=O)N[C@@H](C)c2ccc(CN3CCc4cc(OCC5CC5)ccc4C3)cc2)s1 ... 34
CC(=O)NCCC[C@H]1OC[C@H](Oc2ccc(OCc3ccccc3)cn2)CO1 ... 50
CCNC(=O)C(C)c1ccc(C2CCN(c3ccc(OCC)cc3)CC2)cc1 (stereo not shown) ... 240

I. COCCC(=O)N[C@@H](C)c1ccc(C2CN(c3ccc(OCC4CC4)cc3)C2)cc1
II. CCOc1ccc(N2CCC(c3ccc(C(C)C(=O)N(C)C)cc3)CC2)cc1 (stereo not shown)
III. CCCC(=O)NC(C)Cc1ccc(C#Cc2ccc(OCC)cc2)cc1 (stereo not shown)
IV. Cc1ccc(-c2ccc(Cl)cc2)cc1C1=C(O)C2(CCCC2)CC1=O
V. CCC(=O)N[C@@H](C)c1ccc(CN2Cc3ccc(OCC4CC4)cc3C(O)C2)cc1 (stereo partly shown)
Falling order of IC50, please. Output spec: a listing of the labels in the requested order.
II, IV, I, III, V
(II: 6650 nM, IV: 3060 nM, I: 2060 nM, III: 210 nM, V: 136 nM)

---

pIC50: −log10 of the molar value.
Literature-derived pIC50 for human ACC2 (Homo sapiens (Human), UniProt O00763) follows.
Measured quantity: pIC50

P. CC(=O)N[C@@H](C)c1ccc(OC2CCN(c3cc(C(F)F)ccc3F)C2)cc1 (some centres unmarked)
Q. CC(=O)NC(C)Cc1ccc(C#Cc2cnc(NC3CCC3)nc2)cc1 (centres unmarked)
R. CCOc1ccc(C#Cc2ccc(C(C)NC(=O)c3cocn3)cc2)cc1 (centres unmarked)
S. CCN(C)C(=O)C(C)c1ccc(O[C@@H]2CCN(c3ccc(OCC4CC4(F)F)cn3)C2)cc1 (some centres unmarked)
Rank by decreasing pIC50 the items listed here. I'd appreciate it if you listed the labels in the requested order.
Q, P, S, R
(Q: 6.96, P: 6.66, S: 6.10, R: 4.52)

---

pIC50: −log10 of the molar value.
// read-out pIC50, gathered for human ACC2 (Homo sapiens (Human), UniProt O00763) from published studies
Measured quantity: pIC50

Recorded pIC50, per entry:
C[C@H](NC(=O)C(F)(F)F)c1ccc(O[C@@H]2CCN(c3ccc(OCC4CC4)cc3)C2)cc1 ... 7.41
CC(=O)NC(C)Cc1ccc(C#Cc2cnc(OC(C)C(F)(F)F)nc2)cc1 (stereo not shown) ... 6.59

P. CCOc1nccc(N2CC[C@@H](Oc3ccc([C@H](C)NC(C)=O)cc3)C2)c1F
Q. CC(=O)NC(C)Cc1ccc(C#Cc2cnc(Oc3ccc4cn[nH]c4c3)nc2)cc1 (stereo not shown)
pIC50 comparison. Which is larger, P or Q ? When you have decided, please share the label of that item.
P
(P: 6.73, Q: 5.49)

---

pIC50: −log10 of the molar value.
pIC50 values for UniProt O00763 compiled from several publications are listed below.
Measured quantity: pIC50

P. COc1c(N2CC[C@@H](Oc3ccc([C@H](C)NC(C)=O)cc3)C2)ccnc1OC(C)C
Q. CC(=O)N[C@@H](C)c1ccc(O[C@@H]2CCN(c3cccc(N(C)CC(C)C)n3)C2)cc1
R. CCNC(=O)C(C)c1ccc(N2CCC(c3ccc(OC4CCC4)cc3)CC2)cc1 (stereo not shown)
Method: rank(items above, key=pIC50, ascending=True) Output spec: labels arranged per the requested ranking.
Q, R, P

a. CC(=O)NC(C)c1ccc(CN2CCc3cc(OCC(C)C)ccc3C2)cc1 (stereo not shown)
b. CC(=O)NC(C)Cc1ccc(C#Cc2cccc(C(=O)N3Cc4ccccc4C3)c2)cc1 (stereo not shown)
c. COc1ccc(Cl)c(C#Cc2ccc(CC(C)NC(C)=O)cc2)c1 (stereo not shown)
d. CC(=O)N[C@@H](C)c1ccc(O[C@@H]2CCN(c3ccnc(OCC4CC4C)c3)C2)cc1 (stereo partly shown)
e. CCS(=O)(=O)N1CC(n2c(=O)c3c(C)c(-c4ncco4)sc3n(CC(OC3CCOCC3)c3ccccc3OC)c2=O)C1 (stereo not shown)
Let's sort these by pIC50, smallest first. Go ahead? Sort and list the labels as requested.
b, c, a, d, e
(b: 4.52, c: 6.16, a: 6.99, d: 7.35, e: 8.16)

A. CCCOc1cc(C#Cc2ccc(CCC(C)NC(C)=O)cc2)ccn1 (stereo not shown)
B. CC(=O)NC(C)Cc1ccc(C#Cc2cccc(C(=O)NC(C)c3ccccc3)c2)cc1 (stereo not shown)
Rank A against B by their pIC50 values and give the higher one. Indicate your choice by writing its label.
A

1. C[C@H](NC(=O)c1cnn2ccn(C)c12)c1ccc(O[C@@H]2CCN(c3ccc(OCC4CC4)cc3)C2)cc1
2. CCNC(=O)C(C)c1ccc(C#Cc2ccc(C3CC3)cn2)cc1 (stereo not shown)
Between 1 and 2 , which one has the lower reported pIC50 value? Pick one and reply with its label.
2

P. C[C@H](NC(=O)C1CC1)c1ccc(C2CN(c3ccc(OCC4CC4)cc3)C2)cc1
Q. C[C@H](NC(=O)CC#N)c1ccc(C2CN(c3ccc(OCC4CC4)cc3)C2)cc1
# compare pIC50 for P vs Q ; return the one with the smaller value Please indicate the selected item by its label.
Q
